assayed target: Serine/threonine-protein kinase 17A (Homo sapiens)
conditions used: at 1 µM
parameter measured: residual activity

* Oc1c2ccccc2c2c3c(cccc13)N=N2 | 6%
* O=Nc1c(-c2c(O)[nH]c3ccccc23)[nH]c2ccccc12 | 6%
* O=C(Nc1cccc(Nc2nccc(Nc3cccc(C(F)(F)F)c3)n2)c1)C1CC1 | 73%
* CC#CC(=O)Nc1cc2c(Nc3ccc(F)c(Cl)c3)ncnc2cn1 | 105%
* CCN(CC)CCCCN1c2ccccc2Oc2ccc(Cl)cc21 | 124%
* NC(=O)c1ccc2[nH]c(-c3ccc(Oc4ccc(Cl)cc4)cc3)nc2c1 | 58%
* O=C1NC(=O)c2cc(Nc3ccc(F)cc3)c(Nc3ccc(F)cc3)cc21 | 105%
* COc1cc2ncnc(Nc3ccc(Oc4ccccc4)cc3)c2cc1OC | 81%
* COc1ccc(CNc2nc(N(CCO)CCO)nc3c2ncn3C(C)C)cc1 | 106%
* Cc1nc2cc3nc(-c4cccs4)cnc3cc2n1C | 64%
* O=C1c2ccccc2-[n+]2ccc3c([nH]c4ccccc43)c21 | 104%
* O=c1c2ccccc2[nH]c(=S)n1CCN1CCC(=C(c2ccc(F)cc2)c2ccc(F)cc2)CC1 | 71%
* COc1cc2ncnc(N3CCN(C(=O)Nc4ccc(Oc5ccccc5)cc4)CC3)c2cc1OC | 120%
* O=C1NC(=O)/C(=C/c2ccc3c(c2)OC(F)(F)O3)S1 | 118%
* N#CC(C#N)=C(N)/C(C#N)=C/c1ccc(O)cc1 | 91%
* CO[C@H]1C[C@@H]2CC[C@@H](C)[C@@](O)(O2)C(=O)C(=O)N2CCCC[C@H]2C(=O)O[C@H]([C@H](C)C[C@@H]2CC[C@@H](O)[C@H](OC)C2)CC(=O)[C@H](C)/C=C(\C)[C@@H](O)[C@@H](OC)C(=O)[C@H](C)C[C@H](C)/C=C/C=C/C=C/1C | 113%
* Oc1ccc(Nc2nc(-c3ccc(Cl)cc3)cs2)cc1 | 119%
* CO[C@@H]1[C@H](N(C)C(=O)c2ccccc2)C[C@H]2O[C@]1(C)n1c3ccccc3c3c4c(c5c6ccccc6n2c5c31)C(=O)NC4 | 16%
* O=C1NC(=O)/C(=C\c2ccc3nccnc3c2)S1 | 63%
* CN(C)CCCn1cc(C2=C(c3c[nH]c4ccccc34)C(=O)NC2=O)c2ccccc21 | 108%

----------
assayed target: Receptor tyrosine-protein kinase erbB-4 (Homo sapiens)
conditions used: at 10 µM
Quick list: residual activity per entry.
parameter measured: residual activity (%)

* COc1cc2ncnc(Nc3ccc(Oc4ccccc4)cc3)c2cc1OC | -5
* O=C1NC(=O)/C(=C/c2ccc3c(c2)OC(F)(F)O3)S1 | 101
* c1ccc(-c2n[nH]cc2-c2ccnc3ccccc23)nc1 | 98
* CN(C)c1ccc(/C=C2\C(=O)Nc3ccccc32)cc1 | 82
* CO[C@H]1[C@@H](OC)C[C@H](C)[C@@H](OC)C2=CC(=O)C=C(NC(=O)/C(C)=C/C=C/[C@H](OC)[C@@H](OC(N)=O)/C(C)=C/[C@@H]1C)C2=O | 67
* COc1cc2ncc(-c3ccccc3)nc2cc1OC | 85
* Cc1ccc(NC2=CC(=O)c3sc(C)nc3C2=O)cc1 | 88
* Cn1cc(/C=C2\C(=O)Nc3ccc(S(N)(=O)=O)cc32)c2ccccc21 | 85
* N#C/C(=C(\N)Sc1ccc(N)cc1)c1ccccc1C(F)(F)F | 104
* Oc1c2ccccc2c2c3c(cccc13)N=N2 | 97
* Cc1cccc(-c2[nH]c(C(C)(C)C)nc2-c2ccc3c(c2)OCO3)n1 | 86
* O=C(Nc1cccc(Nc2nccc(Nc3cccc(C(F)(F)F)c3)n2)c1)C1CC1 | 96
* COc1cc2ncnc(Nc3ccc(O)c(Br)c3)c2cc1OC | -1
* COc1ccc(C(=O)Nc2sc3c(c2C(N)=O)CCCC3)cc1OC | 97
* CC(C)n1cnc2/c(=N/c3cccc(Cl)c3)nc(NCCO)[nH]c21 | 107
* COc1cc2ncnc(N3CCN(C(=O)Nc4ccc(Oc5ccccc5)cc4)CC3)c2cc1OC | 145
* CC(C)n1cnc2c(NCc3ccccc3)nc(NCCCO)nc21 | 45
* O=C1NC(=O)c2c1c1c3ccccc3[nH]c1c1[nH]c3cc(Br)ccc3c21 | 83
* O=C1Nc2cc(Br)ccc2/C1=C1/Nc2ccccc2/C1=N\O | 88
* Nc1ccc2ncnc(NCCc3ccc(Oc4ccccc4)cc3)c2c1 | 2
* Cc1cc2ncc(-c3ccccc3)nc2cc1C | 105
* O=C(Nc1cccc(Nc2cc(Nc3cccc(C(F)(F)F)c3)ncn2)c1)C1CC1 | 88
* COc1ccc(OC)c2c(=S)c3ccccc3[nH]c12 | 77
* NC(=O)c1ccc2[nH]c(-c3ccc(Oc4ccc(Cl)cc4)cc3)nc2c1 | 126
* O=c1c2ccccc2[nH]c(=S)n1CCN1CCC(=C(c2ccc(F)cc2)c2ccc(F)cc2)CC1 | 66
* Cc1ccc(S(=O)(=O)/C=C/C#N)cc1 | 90
* C[C@@H](N)[C@H]1CC[C@H](C(=O)Nc2ccncc2)CC1 | 113
* CCOc1cc2ncnc(Nc3cccc(Br)c3)c2cc1OCC | -4
* Cc1nc2cc3nc(-c4cccs4)cnc3cc2n1C | 113
* Nc1nc(Nc2ccc(S(N)(=O)=O)cc2)nn1C(=S)Nc1c(F)cccc1F | 96
* COc1cccc(-c2cc(=O)c3ccccc3o2)c1N | 93
* O=c1cc(-c2cccc3c2Sc2ccccc2S3)oc(N2CCOCC2)c1 | 92
* Cn1nc2c3c(cccc31)C(=O)c1ccccc1-2 | 90
* Nc1cccc(-c2cc3c(Oc4cccc(O)c4)ncnc3[nH]2)c1 | 19
* CO[C@H]1C[C@@H]2CC[C@@H](C)[C@@](O)(O2)C(=O)C(=O)N2CCCC[C@H]2C(=O)O[C@H]([C@H](C)C[C@@H]2CC[C@@H](O)[C@H](OC)C2)CC(=O)[C@H](C)/C=C(\C)[C@@H](O)[C@@H](OC)C(=O)[C@H](C)C[C@H](C)/C=C/C=C/C=C/1C | 130
* N#CCCc1ccc2c(c1)-c1[nH]c3ccc([N+](=O)[O-])cc3c1CC(=O)N2 | 76
* CC(=O)c1ccc(N2CCOCC2)cc1O | 107
* O=C(O)c1ccc2c3c1cccc3c(=O)n1c3ccccc3nc21 | 95
* O=C1NC(=O)c2cc(Nc3ccc(F)cc3)c(Nc3ccc(F)cc3)cc21 | 35
* O=C1Nc2ccc(Br)cc2/C1=C\c1cc2c([nH]1)CCCC2 | 106
* O=[N+]([O-])c1ccc(-c2nc(-c3ccc(F)cc3)c(-c3ccncc3)[nH]2)cc1 | 75
* Oc1n[nH]c2nnc(-c3c(-c4ccccc4)nn4ccccc34)cc12 | 75
* CNc1cc2c(Nc3cccc(Br)c3)ncnc2cn1 | 31

----------
assayed target: Ribosomal protein S6 kinase alpha-2 (Homo sapiens) (UniProt Q15349)
Sequence (Q15349 whole entry): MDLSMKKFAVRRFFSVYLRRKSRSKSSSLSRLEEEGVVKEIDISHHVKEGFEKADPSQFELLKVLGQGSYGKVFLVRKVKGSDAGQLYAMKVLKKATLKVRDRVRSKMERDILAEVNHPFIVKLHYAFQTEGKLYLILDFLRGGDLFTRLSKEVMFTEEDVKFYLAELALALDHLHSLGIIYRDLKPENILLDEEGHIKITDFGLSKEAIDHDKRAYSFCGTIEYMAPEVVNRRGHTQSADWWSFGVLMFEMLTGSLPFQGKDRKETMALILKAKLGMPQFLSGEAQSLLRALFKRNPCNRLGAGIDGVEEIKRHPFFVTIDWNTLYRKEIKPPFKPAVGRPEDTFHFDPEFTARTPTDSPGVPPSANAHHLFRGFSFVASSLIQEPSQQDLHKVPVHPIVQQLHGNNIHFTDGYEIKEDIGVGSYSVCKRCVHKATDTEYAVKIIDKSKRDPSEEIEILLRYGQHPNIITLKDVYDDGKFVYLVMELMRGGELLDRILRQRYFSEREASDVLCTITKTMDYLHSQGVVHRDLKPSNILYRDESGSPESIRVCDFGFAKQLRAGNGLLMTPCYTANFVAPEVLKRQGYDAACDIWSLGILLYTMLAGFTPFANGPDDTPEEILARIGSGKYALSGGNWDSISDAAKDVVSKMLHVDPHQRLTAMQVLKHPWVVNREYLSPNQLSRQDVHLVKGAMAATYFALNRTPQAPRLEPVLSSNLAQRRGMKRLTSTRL
conditions used: at 1 µM
residual activity: recorded values
parameter measured: residual activity (%)

* O=c1c2ccccc2[nH]c(=S)n1CCN1CCC(=C(c2ccc(F)cc2)c2ccc(F)cc2)CC1 | 119
* O=C1NC(=O)/C(=C/c2ccc3c(c2)OC(F)(F)O3)S1 | 117
* COc1cc2ncnc(Nc3ccc(Oc4ccccc4)cc3)c2cc1OC | 100
* CN(C)c1ccc(/C=C2\C(=O)Nc3ccccc32)cc1 | 74
* COc1cc2ncnc(N3CCN(C(=O)Nc4ccc(Oc5ccccc5)cc4)CC3)c2cc1OC | 90
* COc1ccc(CNc2nc(N(CCO)CCO)nc3c2ncn3C(C)C)cc1 | 11
* O=C(Nc1cccc(Nc2nccc(Nc3cccc(C(F)(F)F)c3)n2)c1)C1CC1 | 106
* Oc1n[nH]c2nnc(-c3c(-c4ccccc4)nn4ccccc34)cc12 | 90
* NC(=O)c1ccc2[nH]c(-c3ccc(Oc4ccc(Cl)cc4)cc3)nc2c1 | 18
* Nc1cccc(-c2cc3c(Oc4cccc(O)c4)ncnc3[nH]2)c1 | 76
* C[C@@H](N)[C@H]1CC[C@H](C(=O)Nc2ccncc2)CC1 | 62
* CCN(CC)C(=O)c1ccc(Nc2nc(OCC3CCCCC3)c3nc[nH]c3n2)cc1 | 18
* Oc1ccc(Nc2nc(-c3ccc(Cl)cc3)cs2)cc1 | 91
* c1ccc(-c2n[nH]cc2-c2ccnc3ccccc23)nc1 | 108
* COc1ccc(C(=O)Nc2sc3c(c2C(N)=O)CCCC3)cc1OC | 94

----------
assayed target: Protein kinase C eta type (Homo sapiens) (UniProt P24723)
Sequence (P24723 whole entry): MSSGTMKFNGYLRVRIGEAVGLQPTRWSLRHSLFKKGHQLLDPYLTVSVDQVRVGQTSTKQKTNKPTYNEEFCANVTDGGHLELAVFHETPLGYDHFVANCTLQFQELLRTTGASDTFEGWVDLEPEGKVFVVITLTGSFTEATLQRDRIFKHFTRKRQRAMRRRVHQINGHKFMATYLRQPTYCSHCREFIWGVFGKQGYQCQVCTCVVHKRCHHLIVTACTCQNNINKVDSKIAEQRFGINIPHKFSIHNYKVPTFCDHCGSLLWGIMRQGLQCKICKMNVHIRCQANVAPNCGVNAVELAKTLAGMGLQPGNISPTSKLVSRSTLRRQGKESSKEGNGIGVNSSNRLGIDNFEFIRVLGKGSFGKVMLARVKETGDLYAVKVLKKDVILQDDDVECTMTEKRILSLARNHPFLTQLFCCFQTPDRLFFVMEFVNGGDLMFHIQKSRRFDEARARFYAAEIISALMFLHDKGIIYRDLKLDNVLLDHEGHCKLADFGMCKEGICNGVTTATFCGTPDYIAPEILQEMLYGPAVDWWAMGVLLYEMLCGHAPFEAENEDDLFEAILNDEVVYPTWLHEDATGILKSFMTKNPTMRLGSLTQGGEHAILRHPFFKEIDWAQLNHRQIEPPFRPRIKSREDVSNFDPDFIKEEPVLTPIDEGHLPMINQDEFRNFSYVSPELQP
conditions used: at 10 µM
Lab note: anything with residual activity below 80% is marked 1.0; values at 80% or higher are marked 0.0.

• CN(C)c1ccc(/C=C2\C(=O)Nc3ccccc32)cc1 = 0.0
• O=C(O)c1ccc2c3c1cccc3c(=O)n1c3ccccc3nc21 = 0.0
• Ic1cccc(CSc2nnc(-c3ccncc3)o2)c1 = 1.0
• C[C@@H](N)[C@H]1CC[C@H](C(=O)Nc2ccncc2)CC1 = 1.0
• CC(=O)O/N=C1\C(=C2\C(=O)Nc3cc(Br)ccc32)Nc2ccccc21 = 0.0
• O=[N+]([O-])c1ccc(-c2nc(-c3ccc(F)cc3)c(-c3ccncc3)[nH]2)cc1 = 1.0
• Cc1nc2cc3nc(-c4cccs4)cnc3cc2n1C = 0.0
• COc1ccc(C(=O)Nc2sc3c(c2C(N)=O)CCCC3)cc1OC = 1.0
• Cn1cnc2cc3c(Nc4cccc(Br)c4)ncnc3cc21 = 0.0
• CCOc1cc2ncnc(Nc3cccc(Br)c3)c2cc1OCC = 0.0
• Cc1cc2ncc(-c3ccccc3)nc2cc1C = 0.0
• COc1cc2ncnc(Nc3ccc(Oc4ccccc4)cc3)c2cc1OC = 0.0
• CO[C@@H]1[C@H](N(C)C(=O)c2ccccc2)C[C@H]2O[C@]1(C)n1c3ccccc3c3c4c(c5c6ccccc6n2c5c31)C(=O)NC4 = 1.0
